Where these numbers come from: patent US20120010206A1

# experimentalTarget: TAK1-TAB1 fusion protein (Homo sapiens)
# Sequence (O43318 with tags, fused parts or gaps limits assumed): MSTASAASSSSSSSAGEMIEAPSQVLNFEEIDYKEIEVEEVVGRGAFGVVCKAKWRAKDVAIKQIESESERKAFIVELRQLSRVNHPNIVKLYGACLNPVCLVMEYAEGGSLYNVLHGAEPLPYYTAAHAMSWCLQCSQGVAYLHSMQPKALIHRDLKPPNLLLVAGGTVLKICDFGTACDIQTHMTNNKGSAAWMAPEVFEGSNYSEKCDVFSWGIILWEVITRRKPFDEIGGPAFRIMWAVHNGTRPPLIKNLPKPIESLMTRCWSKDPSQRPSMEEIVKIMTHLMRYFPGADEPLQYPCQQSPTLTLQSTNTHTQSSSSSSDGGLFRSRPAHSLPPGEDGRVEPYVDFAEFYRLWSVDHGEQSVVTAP
# assayProtocol: In vitro TAK1 kinase assay (33P-ATP, casein substrate)
# conditionDetails: semi-quantitative score, at least two independent experiments
measureName: IC50

Worked cases, answers included:
[
  {
    "molecule": "CC(C)N1CCN(c2ccc(Nc3ccc(-c4ccc5c(c4)CNC5=O)n4ccnc34)cc2C(F)(F)F)CC1",
    "IC50": "0.101 to 1 µM"
  },
  {
    "molecule": "CN(C)c1ccc(CNC(=O)c2ccc(Nc3ccc(-c4ccc5c(c4)CNC5=O)n4ccnc34)cc2)cc1",
    "IC50": "0.101 to 1 µM"
  },
  {
    "molecule": "C[C@@H]1CN(C)[C@@H](C)CN1c1ccc(Nc2ccc(-c3cc[nH]c(=O)c3)n3ccnc23)cc1F",
    "IC50": "0.101 to 1 µM"
  }
]

Could you now consider this next molecule?
q: Complete the entry with IC50 for O=c1cc(-c2ccc(Nc3ccc(C4CCN(CC(F)F)CC4)cc3)c3nccn23)cc[nH]1
a: 1 to 3 µM
